Would you mind telling me the reported pKi of each entry?
# tgt: purified ITK (Invitrogen PV3875) (Homo sapiens)
# Construct: purchased Invitrogen PV3875
# Sequence (Q08881 whole entry): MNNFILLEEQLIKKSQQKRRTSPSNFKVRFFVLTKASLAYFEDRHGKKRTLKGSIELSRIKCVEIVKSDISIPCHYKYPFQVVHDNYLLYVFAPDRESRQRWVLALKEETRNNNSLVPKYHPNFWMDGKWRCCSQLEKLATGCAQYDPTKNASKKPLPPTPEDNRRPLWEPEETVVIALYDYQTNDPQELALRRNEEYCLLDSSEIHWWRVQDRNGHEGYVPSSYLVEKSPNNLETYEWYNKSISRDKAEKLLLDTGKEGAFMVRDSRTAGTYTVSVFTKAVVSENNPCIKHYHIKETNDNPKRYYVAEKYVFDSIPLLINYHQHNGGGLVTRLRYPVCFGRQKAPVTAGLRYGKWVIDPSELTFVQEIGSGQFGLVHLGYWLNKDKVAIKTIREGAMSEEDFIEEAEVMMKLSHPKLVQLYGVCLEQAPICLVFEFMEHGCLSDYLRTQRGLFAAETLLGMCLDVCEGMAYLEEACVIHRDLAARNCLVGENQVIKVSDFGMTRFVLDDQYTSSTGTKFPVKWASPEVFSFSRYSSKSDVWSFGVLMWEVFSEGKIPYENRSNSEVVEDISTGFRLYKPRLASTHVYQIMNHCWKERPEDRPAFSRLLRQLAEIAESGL
# test: ITK peptide phosphorylation assay (Caliper LabChip or LCMS)
# Format: biochemical
# experimental parameters: Table 1, Examples 141-279
Numbers only, as −log10 of the molar value.

1) O=C(Nc1cnn(Cc2cccc(N3CCC(O)C3)c2)c1)c1n[nH]c2cc(-c3cn[nH]c3)ccc12 (centres unmarked)    8.94
2) COc1cncc(-c2ccc3c(C(=O)Nc4cnn(C(CN5CCN(C)CC5)c5cccnc5)c4)n[nH]c3c2)c1 (centres unmarked) [Example 234]    8.27
3) CC(C)n1cc(NC(=O)c2n[nH]c3cc(-c4cn[nH]c4)ccc23)cn1    7.99

Please look at the items below and tell me pKi for each one, in order.
1. N#Cc1cccc(Cn2cc(NC(=O)c3n[nH]c4cc(-c5ccc(N)nc5)c(F)cc34)cn2)c1
2. CN(C)CCC(c1cscn1)n1cc(NC(=O)c2n[nH]c3cc(-c4cn[nH]c4)ccc23)cn1 (centres unmarked) [Example 200]
3. CN(C)CCC(c1cccc(Cl)c1)n1cc(NC(=O)c2n[nH]c3cc(-c4cn[nH]c4)ccc23)cn1 (centres unmarked) [Example 249]
4. N#Cc1cccc(Cn2cc(NC(=O)c3n[nH]c4ccc(NC5CCOCC5)cc34)cn2)c1
5. N#Cc1cccc(Cn2cc(NC(=O)c3n[nH]c4cc(Br)c(F)cc34)cn2)c1

1. 7.89
2. 9.14
3. 10.22
4. 6.97
5. 6.95

Just for reference, patent US20140309210A1 is where these values come from.
